Origin of measurements: patent US7704508B2

Reported Invasion T10 100 μM (inhibition) values for the following molecules.
test system: B. divergens; assay: Effect of protease inhibitors on B. divergens erythrocyte invasion (parasitemia by YOYO-1 flow cytometry, T10); type: cell-based; settings: 100 μM, T10
Answers without a unit are incomplete; give the number and then its unit.

Would you please look over these solved cases?
Cc1ccc(S(=O)(=O)N[C@@H](CCCCN)C(=O)CCl)cc1 [TLCK, N-α-tosyl-L-lysine chloromethyl ketone]    60.0 ± 2.0%
NCCc1ccc(S(=O)(=O)F)cc1 [ABSF, 4-(2-aminoethyl)benzenesulfonyl fluoride]    34.0 ± 9.0%
O=c1oc(Cl)c(Cl)c2ccccc12 [3,4 DCI]    43.0 ± 1.2%

Field: next molecule
Given O=S(=O)(F)Cc1ccccc1 [PMSF, phenylmethylsulfonyl fluoride] , state its recorded Invasion T10 100 μM (inhibition).
35.0 ± 18.0%

* * *

system: B. divergens; assay: Effect of protease inhibitors on B. divergens growth in culture (parasitemia by YOYO-1 flow cytometry, T72); assay type: cell-based; conditions: 100 μM, T72
Reported Growth T72 100 μM (inhibition) values for the following molecules.
Field: numeric (%). Do not append units.

O=c1oc(Cl)c(Cl)c2ccccc12    76.0

Given O=S(=O)(F)Cc1ccccc1 [PMSF, phenylmethylsulfonyl fluoride] , state its recorded Growth T72 100 μM (inhibition).
46.7

Next up: NCCc1ccc(S(=O)(=O)F)cc1 [ABSF, 4-(2-aminoethyl)benzenesulfonyl fluoride]
28.0

Next up: Cc1ccc(S(=O)(=O)N[C@@H](CCCCN)C(=O)CCl)cc1
94.1

* * *

test system: B. divergens; experiment: Effect of protease inhibitors on B. divergens erythrocyte invasion (parasitemia by YOYO-1 flow cytometry, T10); format: cell-based; conditions: 50 μM, T10
Reported Invasion T10 50 μM (inhibition) values for the following compounds.
Field: numeric (%). Do not append units.

Would you please look over these solved cases?
O=c1oc(Cl)c(Cl)c2ccccc12    38.0
NCCc1ccc(S(=O)(=O)F)cc1 [ABSF, 4-(2-aminoethyl)benzenesulfonyl fluoride]    3.3
O=S(=O)(F)Cc1ccccc1 [PMSF, phenylmethylsulfonyl fluoride]    28.0

Given Cc1ccc(S(=O)(=O)N[C@@H](CCCCN)C(=O)CCl)cc1 , state its recorded Invasion T10 50 μM (inhibition).
64.0
